system: T1, human IL-12Rβ2 expressed on cells (human, UniProt Q99665 24-862)
T1 construct: the cell lines are described by plasmid or cDNA number only; also called hIL-12RB2; HEK293T transiently transfected with human IL-12Rβ2
T1 sequence: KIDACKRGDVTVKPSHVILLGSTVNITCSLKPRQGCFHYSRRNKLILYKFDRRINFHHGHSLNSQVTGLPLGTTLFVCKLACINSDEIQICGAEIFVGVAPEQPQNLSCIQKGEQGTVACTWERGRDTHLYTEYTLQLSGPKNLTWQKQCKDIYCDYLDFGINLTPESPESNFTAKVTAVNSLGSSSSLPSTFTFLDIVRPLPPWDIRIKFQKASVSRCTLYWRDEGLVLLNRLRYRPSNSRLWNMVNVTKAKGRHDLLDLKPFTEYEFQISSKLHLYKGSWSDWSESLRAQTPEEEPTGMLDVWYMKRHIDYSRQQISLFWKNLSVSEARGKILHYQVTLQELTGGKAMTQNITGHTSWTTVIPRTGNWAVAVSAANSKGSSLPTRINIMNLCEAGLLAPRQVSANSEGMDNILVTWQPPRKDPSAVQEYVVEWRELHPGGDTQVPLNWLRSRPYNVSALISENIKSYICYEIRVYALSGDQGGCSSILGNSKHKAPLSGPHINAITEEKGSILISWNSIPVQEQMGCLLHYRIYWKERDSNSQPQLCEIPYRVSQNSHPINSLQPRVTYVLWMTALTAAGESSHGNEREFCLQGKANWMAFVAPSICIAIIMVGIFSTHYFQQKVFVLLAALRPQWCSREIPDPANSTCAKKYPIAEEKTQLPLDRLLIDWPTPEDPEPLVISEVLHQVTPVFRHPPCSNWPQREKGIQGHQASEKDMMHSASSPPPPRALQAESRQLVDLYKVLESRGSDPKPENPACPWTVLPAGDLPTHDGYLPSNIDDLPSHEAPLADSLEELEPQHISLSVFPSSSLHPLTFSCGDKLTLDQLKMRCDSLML
assayName: flow cytometry, periplasmic extract VHH-HA on HEK293T cells transiently expressing human IL-12Rβ2
Param label: returns criterion met when dMFI < 700, returns criterion not met otherwise, including exact equality.

Is the reported dMFI for anti-IL-12Rβ2 VHH clone 2CRH82 (clone ID 20372) (VHH, Tested as periplasmic extract; not shown: C-terminal HA tag) VHH: QVQLQESGGGLVQAGGSLRLSCAASARTESMYAMAWFRQAPGKEREIVAGIIQSGGTTYISDYMKGRFSIDRGNAENTVYLQMDSLKPEDTAVYSCAAKVSSGTPSDIQISQSRWYDHWGQGTQVTVSS strictly below 700?
criterion not met

Is the reported dMFI for anti-IL-12Rβ2 VHH clone 3CRH5 (clone ID 20373) (VHH, Tested as periplasmic extract; also called 3CRHS; not shown: C-terminal HA tag) VHH: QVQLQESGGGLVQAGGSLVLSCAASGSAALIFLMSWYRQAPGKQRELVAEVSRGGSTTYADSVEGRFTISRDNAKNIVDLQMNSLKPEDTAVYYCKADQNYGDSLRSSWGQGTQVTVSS strictly below 700?
criterion not met

Is the reported dMFI for anti-IL-12Rβ2 VHH clone 3CAHS142 (clone ID 20401) (VHH, Tested as periplasmic extract; not shown: C-terminal HA tag) VHH: QVQLQESGGGLVQAGESLTLSCIASGVIKDYAMGWFRQAPGKEREFVAAISWSGVSIYYADSVKGRFTISRDNAKNTVYLQMNSLEPEDTAVYYCAGTEGAYTVAGGSTFGYDMDYWGKGTQVTVSS strictly below 700?
criterion not met

Is the reported dMFI for anti-IL-12Rβ2 VHH clone 3CAHS124 (clone ID 20400) (VHH, Tested as periplasmic extract; not shown: C-terminal HA tag) VHH: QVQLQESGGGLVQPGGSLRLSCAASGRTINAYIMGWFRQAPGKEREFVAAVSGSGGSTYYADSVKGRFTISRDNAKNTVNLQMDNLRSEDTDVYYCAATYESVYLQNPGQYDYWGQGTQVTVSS strictly below 700?
criterion not met

Is the reported dMFI for anti-IL-12Rβ2 VHH clone 3CRHS106 (clone ID 20429) (VHH, Tested as periplasmic extract; not shown: C-terminal HA tag) VHH: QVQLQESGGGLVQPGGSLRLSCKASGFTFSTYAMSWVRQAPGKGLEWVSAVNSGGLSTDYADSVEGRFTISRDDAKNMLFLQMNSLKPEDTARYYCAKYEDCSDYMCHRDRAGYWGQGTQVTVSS strictly below 700?
criterion not met

Is the reported dMFI for anti-IL-12Rβ2 VHH clone 3CRHM99 (clone ID 21062) (VHH, Tested as periplasmic extract; not shown: C-terminal HA tag) VHH: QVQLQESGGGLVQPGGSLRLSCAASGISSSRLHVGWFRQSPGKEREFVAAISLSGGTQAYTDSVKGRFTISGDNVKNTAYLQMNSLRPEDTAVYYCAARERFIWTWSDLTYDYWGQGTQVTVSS strictly below 700?
criterion met

Is the reported dMFI for anti-IL-12Rβ2 VHH clone 3CRHS9 (clone ID 20415) (VHH, Tested as periplasmic extract; also called 3CRMS9; not shown: C-terminal HA tag) VHH: QVQLQESGGGLVQPGGSLRLSCTASGSIVSIYNMDWYRQAPGNEREWVASITSSGDPYYDGSAKGRFTISRDNAKMTVYLQMNSLKPEDTAVYYCKVPTEKGNYWGQGTQVTVSS strictly below 700?
criterion not met

Is the reported dMFI for anti-IL-12Rβ2 VHH clone 3CRHS51 (clone ID 20421) (VHH, Tested as periplasmic extract; also called 3CRHSS1; not shown: C-terminal HA tag) VHH: QVQLQESGGGLVQPGGSLRLSCAASGFTFSTYAMSWVRQAPGKGLEWVSAVNSGGLSTDYADSVEGRFTISRDDAKNMLFLQMNRLKPEDTARYYCAKYEDCSDYVCDRAGYWGQGTQVTVSS strictly below 700?
criterion not met

Is the reported dMFI for anti-IL-12Rβ2 VHH clone 3CRHM14 (clone ID 21053) (VHH, Tested as periplasmic extract; not shown: C-terminal HA tag) VHH: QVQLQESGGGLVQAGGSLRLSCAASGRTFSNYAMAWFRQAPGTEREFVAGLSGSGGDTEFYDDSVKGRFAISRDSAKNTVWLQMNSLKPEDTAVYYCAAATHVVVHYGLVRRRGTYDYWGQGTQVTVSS strictly below 700?
criterion met

Is the reported dMFI for anti-IL-12Rβ2 VHH clone 3CAHS102 (clone ID 20399) (VHH, Tested as periplasmic extract; not shown: C-terminal HA tag) VHH: QVQLQESGGGLVQPGGSLRLSCAASGSILRINLMGWYRQVPGKQRELVAEMSTGGSTTYVDSVEGRFTISRDNAKNTVYLQMNSLKPEDTAVYYCNAKAWQLGRLENDDWGQGTQVTVSS strictly below 700?
criterion not met

Is the reported dMFI for anti-IL-12Rβ2 VHH clone 3CRHM73 (clone ID 21060) (VHH, Tested as periplasmic extract; not shown: C-terminal HA tag) VHH: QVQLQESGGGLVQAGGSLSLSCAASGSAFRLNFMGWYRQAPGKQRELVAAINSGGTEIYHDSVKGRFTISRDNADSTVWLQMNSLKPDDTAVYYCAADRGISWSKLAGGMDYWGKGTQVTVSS strictly below 700?
criterion met

Is the reported dMFI for anti-IL-12Rβ2 VHH clone 3CAHS41 (clone ID 20394) (VHH, Tested as periplasmic extract; not shown: C-terminal HA tag) VHH: QVQLQESGGGLVQAGDSLRLSCAASGRTFDTYIVGWFRQAPGKEREFVSALSWSDDTTIRDDSLRGRFTISRDNAKNTVYLLMNSLKPEDTAVYYCAAKAKPPAATWSSYRNREWYDYWGQGTQVTVSS strictly below 700?
criterion not met

Is the reported dMFI for anti-IL-12Rβ2 VHH clone 3CRH25 (clone ID 20378) (VHH, Tested as periplasmic extract; not shown: C-terminal HA tag) VHH: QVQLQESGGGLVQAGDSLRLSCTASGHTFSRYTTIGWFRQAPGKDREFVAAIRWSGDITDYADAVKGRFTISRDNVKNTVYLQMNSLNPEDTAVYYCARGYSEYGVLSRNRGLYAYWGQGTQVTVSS strictly below 700?
criterion met

Is the reported dMFI for anti-IL-12Rβ2 VHH clone 3CRHS128 (clone ID 20432) (VHH, Tested as periplasmic extract; not shown: C-terminal HA tag) VHH: QVQLQESGGGLVQPGGSLRLSCAASGFTFSTSGMHWFRQAPGKGLEWVSSIGATVDNSYYASSVKGRFTISRDNAKNTLYLLMNSLKSEDTAVYYCSKDPTGSSRGQGTQVTVSS strictly below 700?
criterion not met

Is the reported dMFI for anti-IL-12Rβ2 VHH clone 3CRHS163 (clone ID 20438) (VHH, Tested as periplasmic extract; also called 3CANS142; not shown: C-terminal HA tag) VHH: QVQLQESGGGLVQPGGSLRLSCTASGFAFSTYWMYWIRQSPEKGFEWVSVVNTGGDITYYADSVKGRFTISRDNAKNTLYLQMNSLKPEDTALYYCARDRTTMSYTRTYYRGGQGTQVTVSS strictly below 700?
criterion not met

Recorded values, source patent US20260209362A1.
